Target: T1, CAPRIN-1 protein expressed on the membrane surface of human cancer cells (human, UniProt Q14444 2-709)
T1 sequence (looked up): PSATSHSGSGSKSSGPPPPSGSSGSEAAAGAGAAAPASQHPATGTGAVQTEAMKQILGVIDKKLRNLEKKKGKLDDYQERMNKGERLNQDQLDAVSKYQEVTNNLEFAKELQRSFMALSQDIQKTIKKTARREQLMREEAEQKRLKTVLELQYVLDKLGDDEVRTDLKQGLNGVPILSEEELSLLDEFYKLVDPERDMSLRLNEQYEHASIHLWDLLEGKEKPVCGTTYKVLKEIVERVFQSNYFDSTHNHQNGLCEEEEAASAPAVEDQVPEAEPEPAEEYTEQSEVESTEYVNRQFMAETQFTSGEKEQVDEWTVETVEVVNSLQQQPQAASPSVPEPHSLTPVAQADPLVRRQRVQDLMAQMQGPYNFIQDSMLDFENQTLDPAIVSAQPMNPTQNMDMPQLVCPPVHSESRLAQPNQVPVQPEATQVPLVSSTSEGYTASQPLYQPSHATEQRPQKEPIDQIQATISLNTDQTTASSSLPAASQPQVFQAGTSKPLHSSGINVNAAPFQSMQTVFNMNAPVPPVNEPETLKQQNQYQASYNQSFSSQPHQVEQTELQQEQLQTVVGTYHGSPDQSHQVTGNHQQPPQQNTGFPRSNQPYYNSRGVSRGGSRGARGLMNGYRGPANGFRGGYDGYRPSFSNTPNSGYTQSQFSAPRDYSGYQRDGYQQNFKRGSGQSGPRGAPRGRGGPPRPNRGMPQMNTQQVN
Experiment: cell-based or functional assay
Assignment: determine reported ADCC cytotoxic activity (51Cr release) on NCI-H2452 for the given binders.

[
  {
    "BINDER": "humanized antibody #3 (antibody, V domains shown) VH: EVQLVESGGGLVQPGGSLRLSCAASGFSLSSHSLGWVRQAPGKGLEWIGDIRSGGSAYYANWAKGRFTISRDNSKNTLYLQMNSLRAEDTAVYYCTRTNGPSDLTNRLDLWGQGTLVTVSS VL: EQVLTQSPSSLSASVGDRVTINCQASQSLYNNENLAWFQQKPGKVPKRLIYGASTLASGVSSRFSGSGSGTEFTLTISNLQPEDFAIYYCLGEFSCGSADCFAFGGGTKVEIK",
    "OBSERVED_VALUE": "≥ 39%"
  }
]

Attention now shifts to the item below.
// returns reported ADCC cytotoxic activity (51Cr release) on NCI-H2452 for input humanized antibody #9 (antibody, V domains shown) VH: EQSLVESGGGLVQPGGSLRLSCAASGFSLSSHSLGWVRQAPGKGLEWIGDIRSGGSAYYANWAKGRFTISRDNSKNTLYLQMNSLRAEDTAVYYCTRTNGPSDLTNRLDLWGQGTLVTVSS VL: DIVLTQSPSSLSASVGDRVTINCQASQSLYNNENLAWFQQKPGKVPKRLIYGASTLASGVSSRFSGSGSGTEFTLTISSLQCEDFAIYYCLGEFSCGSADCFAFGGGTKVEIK
≥ 31%

Hello, the source for this data is patent US20160297889A1, in case you need it.
